B1: Cytoplasmic polyadenylation element-binding protein 2, residues 513 to 575; numbered along this chain, Q7Z5Q1 (parent)
chain: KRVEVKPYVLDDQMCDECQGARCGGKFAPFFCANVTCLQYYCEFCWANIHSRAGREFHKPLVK

Variants of: B1
method.summary: abundance fitness (aPCA) (normalised: wild type 0, dead -1); higher = more abundant; growth selection in yeast, the domain comes from the species named
assay.setup: Homo sapiens
The label depends only on abundance fitness: Satisfied if it is at least -0.8, Not satisfied if it is smaller.

Use these answered entries as a reference point.
chain | class
KRVEVKPYVLDDQMCDECQGARCGGKFAPFFCANVTCLQYYYEFCWANIHSRAGREFHKPLVK [C42Y] | Not satisfied
KRVEVKPYVLDDQMCDECQGARCGGKFAPFFCANQTCLQYYCEFCWANIHSRAGREFHKPLVK [V35Q] | Satisfied
KRVEVKPYVLDDQMCDECQGARCGGKFIPFFCANVTCLQYYCEFCWANIHSRAGREFHKPLVK [A28I] | Satisfied

--- query ---
Is reported abundance fitness greater than or equal to -0.8 here: KRVEVKPYVLDDQMCDECQGARCGGKFAPFFCANVTCLKYYCEFCWANIHSRAGREFHKPLVK [Q39K]
Satisfied
